The measurements presented in this section are drawn from patent US6455554B1.

# assayed-system: CNS nicotinic receptors (Rattus norvegicus, UniProt P09483+P12390)
# Sequence (P09483 31-630): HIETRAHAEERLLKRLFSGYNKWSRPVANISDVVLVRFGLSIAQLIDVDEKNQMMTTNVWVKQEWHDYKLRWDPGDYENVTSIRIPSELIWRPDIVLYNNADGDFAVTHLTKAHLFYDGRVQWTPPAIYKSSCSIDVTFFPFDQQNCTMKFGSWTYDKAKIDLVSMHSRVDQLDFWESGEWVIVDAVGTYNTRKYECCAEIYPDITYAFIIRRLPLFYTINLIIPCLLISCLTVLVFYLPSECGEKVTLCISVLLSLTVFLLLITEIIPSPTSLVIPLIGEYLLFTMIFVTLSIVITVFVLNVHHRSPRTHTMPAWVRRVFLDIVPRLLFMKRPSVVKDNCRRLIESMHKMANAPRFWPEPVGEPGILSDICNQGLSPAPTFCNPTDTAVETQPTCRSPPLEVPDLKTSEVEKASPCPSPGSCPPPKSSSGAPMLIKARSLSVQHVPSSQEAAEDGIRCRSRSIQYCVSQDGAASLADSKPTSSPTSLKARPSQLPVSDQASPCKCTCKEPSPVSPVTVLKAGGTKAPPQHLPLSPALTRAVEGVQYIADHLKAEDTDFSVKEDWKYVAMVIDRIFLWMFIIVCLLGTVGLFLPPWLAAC
# Sequence (P12390 25-500): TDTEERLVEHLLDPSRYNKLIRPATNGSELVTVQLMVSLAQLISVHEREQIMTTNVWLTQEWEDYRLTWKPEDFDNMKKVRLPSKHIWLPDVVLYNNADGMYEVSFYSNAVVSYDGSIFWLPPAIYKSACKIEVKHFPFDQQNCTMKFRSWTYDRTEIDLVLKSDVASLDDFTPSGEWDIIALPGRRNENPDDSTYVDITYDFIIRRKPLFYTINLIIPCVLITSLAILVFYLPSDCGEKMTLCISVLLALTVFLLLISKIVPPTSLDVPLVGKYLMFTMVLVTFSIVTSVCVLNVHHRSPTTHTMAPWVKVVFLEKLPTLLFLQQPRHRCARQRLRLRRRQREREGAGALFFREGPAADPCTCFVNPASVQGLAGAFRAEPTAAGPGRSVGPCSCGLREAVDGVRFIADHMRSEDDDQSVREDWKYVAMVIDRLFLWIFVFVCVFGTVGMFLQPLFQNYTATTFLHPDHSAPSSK
# experiment-summary: Determination of binding to relevant receptor sites
# condition: inhibition constants calculated from IC50 values by the method of Cheng et al.
pKi: −log10 of the molar value.
property-measured: pKi

{"molecule": "CNCC/C=C/c1cnc(N)c([N+](=O)[O-])c1 [Sample No. 1]", "result-value": 8.52}

---

# assayed-system: muscle-type nicotinic acetylcholine receptors (Homo sapiens, UniProt P02708+P07510+Q07001)
# Construct: cell preparations expressing muscle-type nicotinic acetylcholine receptors; endogenous in cells
# Sequence (P02708 21-457): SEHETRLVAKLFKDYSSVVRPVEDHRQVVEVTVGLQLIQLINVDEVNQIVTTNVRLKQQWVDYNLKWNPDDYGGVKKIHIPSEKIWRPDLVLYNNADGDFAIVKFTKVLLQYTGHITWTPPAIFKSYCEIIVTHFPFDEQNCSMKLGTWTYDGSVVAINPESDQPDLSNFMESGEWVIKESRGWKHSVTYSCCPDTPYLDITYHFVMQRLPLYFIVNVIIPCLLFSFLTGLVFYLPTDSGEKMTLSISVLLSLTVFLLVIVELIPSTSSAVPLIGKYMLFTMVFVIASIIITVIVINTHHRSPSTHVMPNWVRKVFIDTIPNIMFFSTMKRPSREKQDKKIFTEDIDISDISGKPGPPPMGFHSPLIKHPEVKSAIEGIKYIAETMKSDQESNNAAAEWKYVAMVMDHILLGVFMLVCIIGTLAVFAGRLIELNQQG
# Sequence (P11230 24-501 partner): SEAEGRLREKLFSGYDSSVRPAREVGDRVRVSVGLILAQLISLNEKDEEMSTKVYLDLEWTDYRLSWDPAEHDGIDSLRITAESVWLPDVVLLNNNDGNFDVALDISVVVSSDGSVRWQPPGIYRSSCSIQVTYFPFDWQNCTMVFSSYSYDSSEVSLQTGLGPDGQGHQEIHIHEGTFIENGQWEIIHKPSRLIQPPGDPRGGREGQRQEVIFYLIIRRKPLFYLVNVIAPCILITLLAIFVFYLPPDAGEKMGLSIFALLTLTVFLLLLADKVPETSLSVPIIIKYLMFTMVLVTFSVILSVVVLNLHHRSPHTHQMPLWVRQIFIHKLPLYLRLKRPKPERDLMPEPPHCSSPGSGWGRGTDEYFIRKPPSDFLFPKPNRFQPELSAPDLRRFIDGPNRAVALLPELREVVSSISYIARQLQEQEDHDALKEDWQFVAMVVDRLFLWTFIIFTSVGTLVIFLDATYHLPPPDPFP
# Sequence (Q07001 22-517): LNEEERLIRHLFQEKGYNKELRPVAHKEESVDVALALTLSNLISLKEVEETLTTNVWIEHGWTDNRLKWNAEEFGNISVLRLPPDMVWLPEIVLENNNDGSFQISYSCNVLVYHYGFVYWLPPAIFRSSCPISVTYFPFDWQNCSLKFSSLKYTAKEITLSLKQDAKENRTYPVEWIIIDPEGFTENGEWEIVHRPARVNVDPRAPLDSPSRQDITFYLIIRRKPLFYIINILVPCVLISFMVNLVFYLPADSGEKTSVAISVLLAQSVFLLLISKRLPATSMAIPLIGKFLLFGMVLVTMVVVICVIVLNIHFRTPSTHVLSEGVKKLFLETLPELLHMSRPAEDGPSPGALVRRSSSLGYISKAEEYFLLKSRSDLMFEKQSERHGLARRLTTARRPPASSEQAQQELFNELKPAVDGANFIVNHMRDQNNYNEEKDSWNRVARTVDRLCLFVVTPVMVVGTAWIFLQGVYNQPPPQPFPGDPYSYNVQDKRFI
# Sequence (P07510 23-517): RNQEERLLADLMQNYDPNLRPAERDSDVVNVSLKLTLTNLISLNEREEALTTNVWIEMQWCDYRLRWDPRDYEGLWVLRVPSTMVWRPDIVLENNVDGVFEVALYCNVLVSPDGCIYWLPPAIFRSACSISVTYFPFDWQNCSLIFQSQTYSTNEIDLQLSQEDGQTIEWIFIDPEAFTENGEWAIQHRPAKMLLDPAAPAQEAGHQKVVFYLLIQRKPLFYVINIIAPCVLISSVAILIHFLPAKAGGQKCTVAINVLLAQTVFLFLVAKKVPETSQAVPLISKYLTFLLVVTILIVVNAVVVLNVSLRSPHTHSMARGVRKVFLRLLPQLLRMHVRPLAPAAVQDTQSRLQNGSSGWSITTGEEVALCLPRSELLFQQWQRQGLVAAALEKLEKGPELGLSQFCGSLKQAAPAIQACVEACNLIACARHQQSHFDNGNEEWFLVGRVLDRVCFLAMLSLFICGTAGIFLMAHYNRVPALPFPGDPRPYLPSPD
# experiment-summary: Determination of interaction with muscle receptors
# Type: cell-based
# Design: dose or concentration left out as unconfirmed
# condition: read-out: Emax at muscle-type receptors
property-measured: Emax (%)

{"compound": "CNC(C)CC=Cc1cncc(C(F)(F)F)c1 (stereo not drawn)", "result-value": 0}
{"compound": "CNC(C)CC=Cc1ccc[n+]([O-])c1 (stereo not drawn)", "result-value": 0}
{"compound": "CCSc1cncc(/C=C/CCNC)c1", "result-value": 7}
{"compound": "CNC(C)CC=Cc1cncc(O)c1 (stereo not drawn)", "result-value": 21}
{"compound": "CN[C@@H](C)C/C=C/c1cc(OC(C)C)c[n+]([O-])c1", "result-value": 7}
{"compound": "CNCC/C=C/c1cncc(OCC(C)C)c1", "result-value": 6}

---

The reader will find reported Emax at ganglionic-type receptors values listed item by item below.
# System: ganglionic-type nicotinic acetylcholine receptors
# experiment-summary: Determination of interaction with ganglion receptors
# Format: cell-based
# condition: at a concentration of 100 uM; relative to (S)-(-)-nicotine
property-measured: Emax at ganglionic-type receptors (%)

{"compound": "CNCC/C=C/c1cncc(OCC(C)C)c1", "measurement-units": "%", "result-value": 13}
{"compound": "CNC(C)CC=Cc1cncc(O)c1 (stereo not shown)", "measurement-units": "%", "result-value": 12}
{"compound": "CNC(C)CC=Cc1cncc(C(F)(F)F)c1 (stereo not shown)", "measurement-units": "%", "result-value": 0}
{"compound": "CNC(C)CC=Cc1ccc[n+]([O-])c1 (stereo not shown)", "measurement-units": "%", "result-value": 8}
{"compound": "CCSc1cncc(/C=C/CCNC)c1", "measurement-units": "%", "result-value": 22}
{"compound": "CN[C@@H](C)C/C=C/c1cc(OC(C)C)c[n+]([O-])c1", "measurement-units": "%", "result-value": 8}
{"compound": "CC(N)CC=Cc1cncc(OC(C)C)c1 (stereo not shown)", "measurement-units": "%", "result-value": 5}
